Record form. Attribute: kon. Fill in for each entry.
Target: T1, native human ApoC3 (human, UniProt P02656 21-99, biotinylated in the captured-antigen assays (Tables 6 and 8); sites not stated)
T1 construct: also called nhuApoC3; native huApoC3
T1 sequence (P02656 21-99): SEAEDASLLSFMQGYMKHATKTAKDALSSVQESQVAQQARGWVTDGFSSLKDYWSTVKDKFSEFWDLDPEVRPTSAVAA
Assay: SPR, IgG captured via anti-human Fc, ApoC3 analyte 200 nM
Give bare numbers, in M⁻¹ s⁻¹.

binder	quantitative result
29G11 IgG (antibody, V domains shown) VH: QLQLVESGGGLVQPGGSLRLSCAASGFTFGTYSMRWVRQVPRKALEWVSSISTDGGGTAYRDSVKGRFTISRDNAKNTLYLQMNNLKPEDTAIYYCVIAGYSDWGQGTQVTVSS VL: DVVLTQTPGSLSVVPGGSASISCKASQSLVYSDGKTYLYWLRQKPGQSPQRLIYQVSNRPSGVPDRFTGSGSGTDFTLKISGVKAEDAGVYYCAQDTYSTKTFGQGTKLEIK	234000
29F10 IgG (antibody, V domains shown) VH: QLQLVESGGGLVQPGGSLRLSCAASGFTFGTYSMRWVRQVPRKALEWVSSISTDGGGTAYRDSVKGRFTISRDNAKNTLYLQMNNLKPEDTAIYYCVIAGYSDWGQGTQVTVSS VL: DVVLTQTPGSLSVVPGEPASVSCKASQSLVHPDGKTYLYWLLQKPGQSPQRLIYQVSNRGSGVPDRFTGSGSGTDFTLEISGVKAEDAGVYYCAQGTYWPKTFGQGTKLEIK	133000
29A06 IgG (antibody, V domains shown) VH: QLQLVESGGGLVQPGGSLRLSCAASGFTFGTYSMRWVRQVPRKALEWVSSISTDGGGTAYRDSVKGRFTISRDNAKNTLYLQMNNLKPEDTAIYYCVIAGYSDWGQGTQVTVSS VL: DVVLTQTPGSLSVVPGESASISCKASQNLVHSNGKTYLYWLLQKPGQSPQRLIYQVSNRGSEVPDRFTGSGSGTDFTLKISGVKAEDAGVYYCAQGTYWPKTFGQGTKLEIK	351000

Required: kon, one value per binder below.
1. 5E5 WT IgG (antibody, V domains shown, Full-length IgG captured by an anti-human Fc antibody) VH: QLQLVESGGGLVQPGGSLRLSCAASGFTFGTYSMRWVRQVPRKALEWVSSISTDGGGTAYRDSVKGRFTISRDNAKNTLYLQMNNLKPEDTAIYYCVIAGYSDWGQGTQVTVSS VL: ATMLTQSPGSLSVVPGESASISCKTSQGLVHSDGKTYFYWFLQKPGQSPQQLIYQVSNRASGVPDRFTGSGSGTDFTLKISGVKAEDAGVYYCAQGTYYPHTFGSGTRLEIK
2. 29A05 IgG (antibody, V domains shown) VH: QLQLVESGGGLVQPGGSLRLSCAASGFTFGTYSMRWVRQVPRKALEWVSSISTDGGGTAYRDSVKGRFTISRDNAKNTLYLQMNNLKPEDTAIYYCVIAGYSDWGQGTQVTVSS VL: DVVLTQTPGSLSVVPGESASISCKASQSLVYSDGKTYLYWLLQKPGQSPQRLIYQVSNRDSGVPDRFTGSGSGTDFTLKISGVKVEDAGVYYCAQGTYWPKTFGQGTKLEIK
3. 29B03 IgG (antibody, V domains shown) VH: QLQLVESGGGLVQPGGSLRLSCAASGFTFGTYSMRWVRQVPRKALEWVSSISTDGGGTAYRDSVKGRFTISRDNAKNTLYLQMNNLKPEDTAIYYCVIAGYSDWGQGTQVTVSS VL: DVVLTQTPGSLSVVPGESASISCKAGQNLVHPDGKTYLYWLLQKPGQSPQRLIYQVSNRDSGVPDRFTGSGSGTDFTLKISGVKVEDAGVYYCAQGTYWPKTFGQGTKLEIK
4. 29G02 IgG (antibody, V domains shown) VH: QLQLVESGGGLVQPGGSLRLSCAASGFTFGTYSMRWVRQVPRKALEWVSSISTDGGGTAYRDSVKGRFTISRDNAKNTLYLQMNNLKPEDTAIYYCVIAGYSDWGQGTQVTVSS VL: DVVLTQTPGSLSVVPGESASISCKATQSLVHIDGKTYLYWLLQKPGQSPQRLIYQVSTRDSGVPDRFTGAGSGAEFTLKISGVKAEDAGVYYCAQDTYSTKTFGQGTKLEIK

1. 166000
2. 194000
3. 241000
4. 286000

Where these numbers come from: patent US20210347865A1
